Values compiled from patent US20110245284A1.

Assay: logP by LC-MS on reversed-phase columns (C 18), method [b], acidic range pH 2.7
Assay type: physicochemical
Details: pH 2.7
Measured log p values are reported for all entries that follow.

Value of log p reported for the molecule COCCOCCOc1ccc(Nc2ncc(Cl)c(NC3CC3)n2)cc1Cl [Example 173] is 2.12[b]

Value of log p reported for the molecule FC(F)(F)c1cnc(Nc2cccc(COc3ccc4c(c3)OCO4)c2)nc1NC1CC1 [Example 227] is 3.9[b]

Value of log p reported for the molecule COC(C)c1cccc(Nc2ncc(Cl)c(NC(C)C3(Cl)CC3)n2)c1 (stereo not shown) [Example 130] is 3.72[b]
